So I've got a bunch of compounds here, and I need their log10(MIC) values.
tested on: Staphylococcus epidermidis; assay: Antibacterial activity against Staphylococcus epidermis 533 strain; format: functional
Would you kindly interpret these values as log10 of MIC expressed in µg/mL?

Query: For the compound NC(=O)C[C@@H]1NC(=O)[C@H](N)[C@H](O)c2ccc(c(Cl)c2)Oc2cc3cc(c2O)Oc2ccc(cc2)[C@@H](O)[C@@H]2NC(=O)[C@H](NC(=O)[C@@H]3NC1=O)c1ccc(O)c(c1)-c1c(O)cc(O)cc1[C@@H](C(=O)NCc1ccc(-c3ccc(Cl)cc3)cc1)NC2=O , what log10(MIC) is on record?
Reply: 1.51

Query: For the compound CC(=O)N[C@@H]1[C@H](O[C@@H]2c3ccc(c(Cl)c3)Oc3cc(cc(Oc4ccc(C[C@@H](N)CO)cc4Cl)c3O)[C@@H](N)C(=O)N[C@H]3C(=O)N[C@@H]2C(=O)N[C@H](C(=O)O)c2cc(O)cc(O[C@H]4O[C@H](CO)[C@@H](O)[C@@H](O)[C@@H]4O)c2-c2cc3ccc2O)O[C@@H](CO)[C@@H](O)[C@@H]1O , what log10(MIC) is on record?
Reply: 1.81

Query: For the compound CCCCCCCCCCNC(=O)[C@H]1NC(=O)[C@H]2NC(=O)[C@H](NC(=O)[C@@H]3NC(=O)[C@H](CC(N)=O)NC(=O)[C@H](N)[C@H](O)c4ccc(c(Cl)c4)Oc4cc3cc(c4O)Oc3ccc(cc3)[C@H]2O)c2ccc(O)c(c2)-c2c(O)cc(O)cc21 , what log10(MIC) is on record?
Reply: 1.20

Query: For the compound N[C@H]1C(=O)N[C@@H]2Cc3ccc(c(Cl)c3)Oc3cc4cc(c3O)Oc3ccc(cc3Cl)[C@@H](O)[C@@H]3NC(=O)[C@H](NC(=O)[C@@H]4NC(=O)[C@@H](NC2=O)c2cc(O)cc(c2)Oc2cc1ccc2O)c1ccc(O)c(c1)-c1c(O)cc(O)cc1[C@@H](C(=O)NCc1ccc(-c2ccc(Cl)cc2)cc1)NC3=O , what log10(MIC) is on record?
Reply: -0.89

Query: For the compound CN[C@H](CC(C)C)C(=O)N[C@H]1C(=O)N[C@@H](CC(N)=O)C(=O)N[C@H]2C(=O)N[C@H]3C(=O)N[C@H](C(=O)N[C@H](C(=O)O)c4cc(O)cc(O)c4-c4cc3ccc4O)[C@H](O[C@@H]3C[C@@](C)(N)[C@H](O)[C@@H](C)O3)c3ccc(cc3)Oc3cc2cc(c3O[C@H]2O[C@@H](CO)[C@H](O)[C@@H](O)[C@@H]2O[C@H]2C[C@](C)(N)[C@@H](O)[C@H](C)O2)Oc2ccc(cc2Cl)[C@H]1O [EREMOMYCIN] , what log10(MIC) is on record?
Reply: -0.60

Query: For the compound CCCCCCCCCCNC(=O)[C@H]1NC(=O)[C@H]2NC(=O)[C@H](NC(=O)[C@@H]3NC(=O)[C@H]4NC(=O)[C@@H](Cc5ccc(c(Cl)c5)Oc5cc3cc(c5O)Oc3ccc(cc3Cl)[C@H]2O)NC(=O)[C@H](N)c2ccc(O)c(c2)Oc2cc(O)cc4c2)c2ccc(O)c(c2)-c2c(O)cc(O)cc21 , what log10(MIC) is on record?
Reply: -0.89

Query: For the compound CCCCCCCCCCNC(=O)[C@H]1NC(=O)[C@H]2NC(=O)[C@H](NC(=O)[C@H](N)c3cc(Oc4ccc(C[C@@H](N)CO)cc4Cl)c(O)c(c3)Oc3ccc(cc3Cl)[C@H]2O[C@@H]2O[C@@H](CO)[C@@H](O)[C@H](O)[C@@H]2NC(C)=O)c2ccc(O)c(c2)-c2c(O[C@H]3O[C@H](CO)[C@@H](O)[C@@H](O)[C@@H]3O)cc(O)cc21 , what log10(MIC) is on record?
Reply: 1.20
